The values you see were collected from the supplement of paper PMC6755084.

B1: F1*; a variant is named by its letters at N, in order (parent)
chain: GAGACCGCAACTGAAAAGTTGTTATCNNNNNNNNAANNNNNTTNGNNGGGTTGAAGTTCTGCACGTAGAAGCAAAAGGC

Variants of: B1
Assay: fraction ligated after 30 min (ligated reads / total reads); higher = more ligase activity
Settings: with F1*sub RNA substrate (template-directed ligation), 42 °C
# fraction ligated listing for each entry below

variant description: ACTTTCGTACACTGAT
fraction ligated: 0.811

variant description: ACTTGTGTGACACTAT
fraction ligated: 0.797

variant description: CTTGTCGTGACACTAT
fraction ligated: 0.779

variant description: ATTGTCGTGCACTGAT
fraction ligated: 0.777

variant description: ACTTGTCGACACTGAT
fraction ligated: 0.822

variant description: ACTTGTCTGCACTGAT
fraction ligated: 0.797

variant description: ACTTGCGTGACACTAT
fraction ligated: 0.802

variant description: ACTTGCGTACACTGAT
fraction ligated: 0.837

variant description: ACTTGTCTGACACTGT
fraction ligated: 0.285

variant description: ATTGTCGTGAACTGAT
fraction ligated: 0.838

variant description: ACTTGTCTGACATGAT
fraction ligated: 0.834

variant description: ACTTGTCGGACACTGT
fraction ligated: 0.236

variant description: ACTTGTCGGACACTGA
fraction ligated: 0.15

variant description: ACTTGCGTGACACGAT
fraction ligated: 0.801

variant description: ACTTGTGTGACACGAT
fraction ligated: 0.807

variant description: CTTGTCGTGACACTGA
fraction ligated: 0.00758

variant description: ACTTGTCGGACCTGAT
fraction ligated: 0.801

variant description: CTTGTCGTGACACTGT
fraction ligated: 0.346

variant description: ATTGTCGTGACATGAT
fraction ligated: 0.811

variant description: ACTTGTGTGACATGAT
fraction ligated: 0.841

variant description: ACTTGTGTGACACTGT
fraction ligated: 0.0697

variant description: ATTGTCGTGACACGAT
fraction ligated: 0.806

variant description: ACTTGTGTACACTGAT
fraction ligated: 0.86

variant description: ACTTTCGTGACACTGT
fraction ligated: 0.0695

variant description: CTTGTCGTACACTGAT
fraction ligated: 0.772

variant description: ATTGTCGTGACACTAT
fraction ligated: 0.776

variant description: ACTTGTCTGACCTGAT
fraction ligated: 0.783

variant description: ACTTGTCGGACACGAT
fraction ligated: 0.775

variant description: ACTGTCGTGACACTGA
fraction ligated: 0.13

variant description: ACTTGCGTGCACTGAT
fraction ligated: 0.856

variant description: ACTGTCGTGACATGAT
fraction ligated: 0.846

variant description: ACTTGCGTGACACTGA
fraction ligated: 0.128

variant description: ACTTGTCGGACATGAT
fraction ligated: 0.831

variant description: ACTTTCGTGAACTGAT
fraction ligated: 0.873

variant description: ACTTGCGTGACCTGAT
fraction ligated: 0.815

variant description: ACTTGCGTGACATGAT
fraction ligated: 0.847

variant description: CTTGTCGTGAACTGAT
fraction ligated: 0.809

variant description: ACTTGCGTGACACTGT
fraction ligated: 0.143

variant description: ACTTTCGTGACCTGAT
fraction ligated: 0.773

variant description: ACTTTCGTGACACGAT
fraction ligated: 0.779

variant description: ACTTTCGTGCACTGAT
fraction ligated: 0.8

variant description: ACTGTCGTGACACGAT
fraction ligated: 0.812

variant description: ACTTGTGTGACACTGA
fraction ligated: 0.0628

variant description: CTTGTCGTGACCTGAT
fraction ligated: 0.786

variant description: ACTTGTCTGACACGAT
fraction ligated: 0.786

variant description: ACTGTCGTGACACTAT
fraction ligated: 0.79

variant description: ACTTGTCTACACTGAT
fraction ligated: 0.817

variant description: ACTGTCGTGACCTGAT
fraction ligated: 0.849

variant description: CTTGTCGTGCACTGAT
fraction ligated: 0.776

variant description: ACTTGTCTGACACTAT
fraction ligated: 0.775

variant description: ACTTGTCGGAACTGAT
fraction ligated: 0.813

variant description: CTTGTCGTGACATGAT
fraction ligated: 0.794

variant description: ACTTTCGTGACACTGA
fraction ligated: 0.0557

variant description: ACTTTCGTGACACTAT
fraction ligated: 0.793

variant description: ATTGTCGTGACACTGA
fraction ligated: 0.12

variant description: ACTTGTCGGACACTAT
fraction ligated: 0.769

variant description: CTTGTCGTGACACGAT
fraction ligated: 0.788

variant description: ACTGTCGTACACTGAT
fraction ligated: 0.84

variant description: ATTGTCGTACACTGAT
fraction ligated: 0.799

variant description: ATTGTCGTGACCTGAT
fraction ligated: 0.79

variant description: ACTGTCGTGAACTGAT
fraction ligated: 0.858

variant description: ACTTGTCTGACACTGA
fraction ligated: 0.169

variant description: ACTTGTCTGAACTGAT
fraction ligated: 0.787

variant description: ACTTGTCGGCACTGAT
fraction ligated: 0.78
